tested on: U2OS; assay: Multiplex assay against U2OS; format: toxicity, cell-based; conditions: human, 48 h, 10 µM, compound concentration 10 uM, replicate 1
Here, each record is paired with measured Population Mitotic Cells (%) data.
Write it as a number; the unit % goes unstated.

For orientation, consider the following solved cases.
COc1c(C)cc(NC(=O)c2nn(Cc3ccc(F)cc3)c3c2CN(C(=O)c2ccc[nH]2)C[C@]3(C)C(N)=O)cc1C    15
Cc1ccc(C(C)(O)c2nc3ccccc3s2)c(C)c1 (centres undefined)    3

Which Population Mitotic Cells (%) reading was recorded for the molecule C[C@H]1[C@H]2CC[C@H]3[C@@H]4CC=C5C[C@@H](N(C)C)CC[C@]5(C)[C@H]4CC[C@]23CN1C [CONESSINE] ?
10

Which Population Mitotic Cells (%) reading was recorded for the molecule CN1CCN(c2nc3cc(C(F)(F)F)ccc3n3cccc23)CC1.O=C(O)/C=C\C(=O)O.O=C(O)/C=C\C(=O)O ?
21

---

tested on: U2OS; assay: Multiplex assay against U2OS; type: toxicity, cell-based; details: human, 12 h, 10 µM, compound concentration 10 uM, replicate 1
Here, each record is paired with measured Population Hoechst High Intensity Objects (%) data.
Provide a numeric answer, followed by its unit.

CC(C)(C)c1ccc(S(=O)(=O)Nc2ccc(Cl)cc2C(=O)c2cc[n+]([O-])cc2)cc1    1%
COc1c(C)cc(NC(=O)c2nn(Cc3ccc(F)cc3)c3c2CN(C(=O)c2ccc[nH]2)C[C@]3(C)C(N)=O)cc1C    9%
Cc1ccc(/C(=C\CN2CCCC2)c2ccccn2)cc1    3%

Requested read-out Population Hoechst High Intensity Objects (%), target or system U2OS, entry O=C(O)Cc1ccccc1Nc1c(Cl)cccc1Cl
2%

Requested read-out Population Hoechst High Intensity Objects (%), target or system U2OS, entry CCNC1(C(N)=O)CCN(c2ncnc3c2nc(-c2ccccc2Cl)n3-c2ccc(Cl)cc2)CC1
6%

Requested read-out Population Hoechst High Intensity Objects (%), target or system U2OS, entry CCCN1CCC[C@@H]2Cc3n[nH]cc3C[C@H]21.Cl [QUINPIROLE HYDROCHLORIDE]
1%

Requested read-out Population Hoechst High Intensity Objects (%), target or system U2OS, entry O=C1COc2nccc(-c3ccccc3F)c2CN1Cc1cc(C(F)(F)F)cc(C(F)(F)F)c1
3%

Requested read-out Population Hoechst High Intensity Objects (%), target or system U2OS, entry C[C@H](NC(=O)c1c(C(F)F)nn(C)c1Oc1cccc(C(F)(F)F)c1)c1ccc(C(=O)O)cc1
3%

Requested read-out Population Hoechst High Intensity Objects (%), target or system U2OS, entry CCCC(CCC)C(=O)O
4%

Requested read-out Population Hoechst High Intensity Objects (%), target or system U2OS, entry CC1(COc2ccc3c(c2)ncn3-c2ccc3cccc(N4CCC(N)CC4)c3n2)COC1
21%

Requested read-out Population Hoechst High Intensity Objects (%), target or system U2OS, entry C[C@@H]1C[C@H]2[C@@H]3CCC4=CC(=O)C=C[C@]4(C)[C@@]3(F)[C@@H](O)C[C@]2(C)[C@@]1(O)C(=O)CO
2%

Requested read-out Population Hoechst High Intensity Objects (%), target or system U2OS, entry COc1cc(NC(=O)CCN2CCC(OC(=O)Nc3ccccc3-c3ccccc3)CC2)c(Cl)cc1CNC[C@H](O)c1ccc(O)c2[nH]c(=O)ccc12
6%

Requested read-out Population Hoechst High Intensity Objects (%), target or system U2OS, entry O=C(O)c1cc2ccccc2c(Cc2c(O)c(C(=O)O)cc3ccccc23)c1O
2%

Requested read-out Population Hoechst High Intensity Objects (%), target or system U2OS, entry CC(=O)NCCc1c(Cc2ccccc2)[nH]c2ccccc12
2%

Requested read-out Population Hoechst High Intensity Objects (%), target or system U2OS, entry CSc1ccccc1N1CCN(CCCCCC(=O)NC2CCCc3ccccc32)CC1.Cl (configuration not stated)
8%

Requested read-out Population Hoechst High Intensity Objects (%), target or system U2OS, entry O=C(NCCO)c1cccc(-c2cc(Nc3ccc(OC(F)(F)F)cc3)ncn2)c1
4%

Requested read-out Population Hoechst High Intensity Objects (%), target or system U2OS, entry CN(C)c1ccnc2sc3c(=O)n(N4CCCCCC4)cnc3c12
4%
